protocol.description: qHTS assay to identify small molecule antagonists of the androgen receptor (AR) signaling pathway using the MDA cell line - cell viability counter screen (AID 743041; note: nearly all actives have a fitted effect of over 45% in size)
measurement.conditions: MDA-kb2 viability, CellTiter-Fluor, 16 h, cells co-treated with R1881 androgen agonist; series mostly up to 70.3 µM
Records with an inconclusive call do not appear. Activity calls are given as the source filed them. Calls come from the whole dose curve; as a rule, active = well fitted cell-killing curve with a large enough effect in the repeat runs; inconclusive = weak or mixed curves, or effect the other way; inactive = flat fitted curve, though single readings scatter.
Classes used: active, inactive

compound: CCOc1ccc2c(c1)C(C)CC(C)(C)N2 (configuration not stated)
answer.label: inactive

compound: CC(C)C/C=C(\C=O)c1ccccc1
answer.label: inactive

compound: COc1ccc(/C=C/c2cc(OC)cc(=O)o2)cc1
answer.label: inactive

compound: O=C(O)CNc1ccccc1
answer.label: inactive

compound: Cc1ccc(NC=O)c(C)c1
answer.label: inactive

compound: OCCCO
answer.label: inactive

compound: Clc1ccccc1-c1nc(-c2ccncc2)no1
answer.label: inactive

compound: COc1ccc(CN(CCN(C)C)c2ncccn2)cc1
answer.label: inactive

compound: COc1ccc(C(=O)Nc2ccccc2)cc1[N+](=O)[O-]
answer.label: inactive

compound: N#C[C@@H]1CC(F)(F)CN1C(=O)CNC1CC2CCC(C1)N2c1ncccn1 (some centres not stated)
answer.label: inactive

compound: O=Cc1ccc(Cl)c([N+](=O)[O-])c1
answer.label: inactive

compound: COc1cc(C)c(Cc2cnc(N)nc2N)cc1OC
answer.label: inactive

compound: C=CC(=O)NC(C)(C)C
answer.label: inactive

compound: C=CC(O)CCCCC (configuration not stated)
answer.label: inactive

compound: O=C(O)c1ccccc1[N+](=O)[O-]
answer.label: inactive

compound: CC(=O)c1ccc(Cl)c(Cl)c1Cl
answer.label: inactive

compound: CC1(C)CC(=O)CC(C)(C)N1
answer.label: inactive

compound: Nc1ccc(-c2ccc(F)cc2)cc1
answer.label: inactive

compound: c1ccc(CCNc2nc(-c3ccccc3)cs2)cc1
answer.label: inactive

compound: CC(C)NC(=O)c1ccccc1N
answer.label: inactive

compound: Cc1ccc2ccccc2c1[N+](=O)[O-]
answer.label: inactive

compound: C=CC(=O)OCCCCCCCCCC
answer.label: inactive

compound: CC(C)(O)C(=O)O
answer.label: inactive

compound: CCc1c(C)[nH]c2c1C(=O)C(CN1CCOCC1)CC2 (configuration not stated)
answer.label: inactive

compound: O=C(NC1CCN(CCc2c[nH]c3ccccc23)CC1)c1ccccc1
answer.label: inactive

compound: Cc1ccc2c(Cl)cc(Cl)c(O)c2n1
answer.label: active

compound: CCCCCCCCS
answer.label: inactive

compound: OCCOc1cccc(OCCO)c1
answer.label: inactive

compound: CC1(C)C(=O)NC(=O)N1CO
answer.label: inactive

compound: CC(C(=O)O)c1ccc2c(c1)Cc1cccnc1O2 (configuration not stated)
answer.label: inactive

compound: CC1=C(C)C(=O)C(CCCCC#CCCCC#CCO)=C(C)C1=O
answer.label: inactive

compound: CC1(C)CC(O)CC(C)(C)N1[O]
answer.label: inactive

compound: CCCCCCCCC(=O)OCC(C)OC(=O)CCCCCCCC (configuration not stated)
answer.label: inactive

compound: CO[C@@H]1COCC[C@@H]1N[C@@H]1CC[C@@](C(=O)N2CCc3ncc(C(F)(F)F)cc3C2)(C(C)C)C1
answer.label: inactive

compound: CC(C)Cc1nccs1
answer.label: inactive

compound: CCCCCCCCCC(C)C=O (configuration not stated)
answer.label: inactive

compound: CC1(C)[C@@H]2CC[C@]3(C2)[C@@H]1C(=O)CCC3(C)C
answer.label: inactive

compound: O=[N+]([O-])c1cccc(I)c1
answer.label: inactive

compound: Cc1cc(C)n(CO)n1
answer.label: inactive

compound: C1=COCCC1
answer.label: inactive

compound: O=C1c2ccccc2C(=O)C1c1ccc2ccccc2n1
answer.label: inactive

compound: CCCC(=O)OCc1ccccc1
answer.label: inactive

compound: CC1=C(C)C(=O)C(C(CCCCCC(=O)O)c2ccccc2)=C(C)C1=O (configuration not stated)
answer.label: inactive

compound: CC1=CC(=C(c2ccc(N)cc2)c2ccc(N)cc2)C=CC1=N
answer.label: active

compound: O=P(c1ccccc1)(c1ccccc1)c1ccccc1
answer.label: inactive

compound: CCCCCCCCCCCCN1CCOCC1
answer.label: inactive

compound: O=C1C=CCCC1
answer.label: inactive

compound: CC/C=C/CCO
answer.label: inactive

compound: O=C(OC1C[C@H]2CC[C@@H](C1)[N+]21CCCC1)C(O)(c1ccccc1)c1ccccc1 (some centres not stated)
answer.label: inactive

compound: C[C@@H](O)[C@H]1C(=O)N2C(C(=O)O)=C(S[C@@H]3CN[C@H](CNS(N)(=O)=O)C3)[C@H](C)[C@H]12
answer.label: inactive

compound: C=C[Si]1(C)O[Si](C)(C=C)O[Si](C)(C=C)O[Si](C)(C=C)O1 (configuration not stated)
answer.label: inactive

compound: CCCOC(C)=O
answer.label: inactive

compound: COc1ccc(C(=O)c2ccc(C)cc2)c(O)c1
answer.label: inactive

compound: c1ccc(CN(Cc2ccccc2)Cc2ccccc2)cc1
answer.label: inactive

compound: O=Cc1ccc([N+](=O)[O-])cc1
answer.label: inactive

compound: Nc1cccc2c(=O)[nH][nH]c(=O)c12
answer.label: inactive

compound: Cc1ccccc1CCO
answer.label: inactive
